# Tested on: giant foxtail
# assay remarks: Test B pre/postemergence giant foxtail
# Assay type: in vivo, Setaria faberii
# experimental context: Rate 62 g/ha, Postemergence; scale 0 to 10 (0 no effect, 10 complete control)
measure name: Giant foxtail plant response rating

Reference set (7 entries):
CC1Cc2cccc(-n3c(=O)on(C(=O)N(c4ccc(F)cc4)C(C)C)c3=O)c2O1 (centres unmarked) [Compound 281]    0
CCc1cccc(CC)c1-n1c(=O)on(C(=O)N(c2ccc(F)cc2)C(C)C)c1=O [Compound 304]    0
CCN(C(=O)n1oc(=O)n(C(C)C)c1=O)C1CCCCC1 [Compound 309]    0
CC(C)N(C(=O)n1oc(=O)n(COC(=O)C(C)(C)C)c1=O)c1ccc(F)cc1 [Compound 462]    0
CC(C)N(C(=O)n1oc(=O)n(CCC#N)c1=O)c1ccc(Cl)cc1 [Compound 444]    4
CCN(C(=O)n1oc(=O)n(C2CC2)c1=O)C1CCCCC1 [Compound 298]    0
CCc1nc(C)c(C(C)n2c(=O)on(C(=O)N(c3ccc(F)cc3)C(C)C)c2=O)s1 (centres unmarked) [Compound 449]    0

Proceed to the following item.
According to the records, this compound CC(C)N(C(=O)n1oc(=O)n(CO)c1=O)c1ccc(Cl)cc1 [Compound 457] displays Giant foxtail plant response rating of 0

---

# Test system: corn
# assay remarks: Test B pre/postemergence corn
# Format: in vivo, Zea mays
# experimental context: Rate 500 g/ha, Postemergence; scale 0 to 10, 0 no effect, 10 complete control
measure name: Corn plant response rating
Just the number, please, no unit attached.

Use the examples below as a reference point.
CC(C)N(C(=O)n1oc(=O)n(Cc2nnsc2Cl)c1=O)c1ccc(F)cc1F    0
CCN(C(=O)n1oc(=O)n(C(C)C)c1=O)C1CCCCC1    0
Cc1cccc(C(C)(C)C)c1-n1c(=O)on(C(=O)N(c2ccccc2)C(C)C)c1=O    0
COc1cc(C)cc(C)c1-n1c(=O)on(C(=O)N(c2ccc(F)cc2)C(C)C)c1=O    0

Value of measured Corn plant response rating for the entry CC(C)N(C(=O)n1oc(=O)n(C(C)C)c1=O)c1ccccc1 : 6

Short answer for CC1Cc2cccc(-n3c(=O)on(C(=O)N(c4ccc(F)cc4)C(C)C)c3=O)c2O1 (stereo not drawn) : Corn plant response rating was 0

---

Listing of recorded Blackgrass plant response rating by entry.
# Test system: blackgrass
# assay remarks: Test B pre/postemergence blackgrass
# Format: in vivo, Alopecurus myosuroides
# experimental context: Preemergence, Rate 250 g/ha; scale 0 to 10, 0 is no effect, 10 is complete control
Reply with just the number.

Examples with their reported Blackgrass plant response rating follow.
CC(C)N(C(=O)n1oc(=O)n(CC2=NCCCO2)c1=O)c1ccccc1 [Compound 494]    0
CC(C)N(C(=O)n1oc(=O)n(CO)c1=O)c1ccc(Cl)cc1 [Compound 457]    0
CC(C)N(C(=O)n1oc(=O)n(C(C)C#N)c1=O)c1ccccc1 (centres unmarked) [Compound 435]    0
CC(C)N(C(=O)n1oc(=O)n(CCC#N)c1=O)c1ccc(Cl)cc1 [Compound 444]    8

Let me check: CCN(Cc1ccccc1)C(=O)n1oc(=O)n(C(C)C)c1=O [Compound 166] , system blackgrass, measured Blackgrass plant response rating is 4

Reported blackgrass Blackgrass plant response rating for item CC(=O)OCCCCn1c(=O)on(C(=O)N(c2ccc(F)cc2F)C(C)C)c1=O [Compound 506] was 4

Per the reported blackgrass data, COCn1c(=O)on(C(=O)N(c2ccc(F)cc2F)C(C)C)c1=O [Compound 503] has Blackgrass plant response rating of 9

Per the reported blackgrass data, Cc1ccccc1-n1c(=O)on(C(=O)N(c2c(F)cccc2F)C(C)C)c1=O [Compound 176] has Blackgrass plant response rating of 2

Per the reported blackgrass data, Cc1nc(C)c(-n2c(=O)on(C(=O)N(c3ccc(F)cc3)C(C)C)c2=O)s1 [Compound 198] has Blackgrass plant response rating of 0

Value sought: Blackgrass plant response rating, system blackgrass, item CCOP(=O)(Cn1c(=O)on(C(=O)N(c2ccccc2)C(C)C)c1=O)OCC [Compound 447] . Result: 0

# lookup: CC(C)N(C(=O)n1oc(=O)n(CCCF)c1=O)c1ccc(F)cc1F [Compound 500] on blackgrass, Blackgrass plant response rating = 10

---

# Tested on: wild oat
# assay remarks: Test B pre/postemergence wild oat
# Format: in vivo, Avena fatua
# experimental context: Preemergence, Rate 62 g/ha; scale of 0 to 10 where 0 is no effect and 10 is complete control
measure name: Wild oats plant response rating

Completed entries (count: 2):
CC(C)N(C(=O)n1oc(=O)n(CCC(=O)N(C)C)c1=O)c1ccc(F)cc1    4
CC(C)N(C(=O)n1oc(=O)n(Cc2nnsc2Cl)c1=O)c1ccc(F)cc1F    0

For record CC(C)N(C(=O)n1oc(=O)n(Cc2ccccc2-c2ccccc2)c1=O)c1ccc(F)cc1 the listed Wild oats plant response rating is 0

---

# Test system: surinam grass
# assay remarks: Test B pre/postemergence surinam grass
# Format: in vivo, Brachiaria decumbens
# experimental context: Preemergence, Rate 62 g/ha; scale of 0 to 10 where 0 is no effect and 10 is complete control
measure name: Plant response rating, B. signalgrass

CCc1nc(C)c(C(C)n2c(=O)on(C(=O)N(c3ccc(F)cc3)C(C)C)c2=O)s1 (stereo not shown)    0

Noted for CC(C)N(C(=O)n1oc(=O)n(CCC2OCCCO2)c1=O)c1ccc(Cl)cc1 : its Plant response rating, B. signalgrass reads 0

Recorded result, CC(C)N(C(=O)n1oc(=O)n(CC2CC2)c1=O)c1ccc(F)cc1F , Plant response rating, B. signalgrass: 2

Summary for this compound, CC(C)N(C(=O)n1oc(=O)n(C[Si](C)(C)C)c1=O)c1ccc(F)cc1F : Plant response rating, B. signalgrass is 0

---

# System: rape
# assay remarks: Test B pre/postemergence rape
# Type: in vivo, Brassica napus
# experimental context: Preemergence, Rate 62 g/ha; scale of 0 to 10 where 0 is no effect and 10 is complete control
In this section, each of the molecules is paired with its reported Plant response rating, Rape.
Write the number on its own, no unit after it.

CC(C)N(C(=O)n1oc(=O)n(CCCNC(=O)CCl)c1=O)c1ccccc1    0
CCC=CCn1c(=O)on(C(=O)N(c2ccc(F)cc2F)C(C)C)c1=O    0
COCn1c(=O)on(C(=O)N(c2ccc(F)cc2F)C(C)C)c1=O    4
CC(C)N(C(=O)n1oc(=O)n(CC2=NCCCO2)c1=O)c1ccccc1    0

# Plant response rating, Rape (molecule: CCC(=O)Cn1c(=O)on(C(=O)N(c2ccc(F)cc2F)C(C)C)c1=O ) is 2

---

# System: soybean
# assay remarks: Test B pre/postemergence soybean
# Format: in vivo, Glycine max
# experimental context: Preemergence, Rate 250 g/ha; scale 0 to 10 (0 no effect, 10 complete control)
measure name: Plant response rating, Soybean
Form rule: numeric answer, no unit written next to it.

Answered examples (3):
CC(C)N(C(=O)n1oc(=O)n(Cc2nnc(Cl)s2)c1=O)c1ccccc1    0
CC(C)N(C(=O)n1oc(=O)n(CCF)c1=O)c1ccccc1    3
CCCCCCn1c(=O)on(C(=O)N(c2ccc(F)cc2F)C(C)C)c1=O    0

Then this molecule:
// CC(C)N(C(=O)n1oc(=O)n(CCC(=O)N(C)C)c1=O)c1ccc(F)cc1 : Plant response rating, Soybean value = 3

---

# System: surinam grass
# assay remarks: Test B pre/postemergence surinam grass
# Assay type: in vivo, Brachiaria decumbens
# experimental context: Rate 62 g/ha, Postemergence; scale of 0 to 10 where 0 is no effect and 10 is complete control
measure name: B. signalgrass plant response rating
Lab note: jot down the number only; don't add units.

CC1CC1n1c(=O)on(C(=O)N(c2ccc(F)cc2)C(C)C)c1=O (stereo not drawn)    0

Simply: CCCCCCCCCCCCCCCCCCCn1c(=O)on(C(=O)N(c2ccc(F)cc2)C(C)C)c1=O , surinam grass, B. signalgrass plant response rating = 0

Note to self: B. signalgrass plant response rating of Cc1nc(C)c(-n2c(=O)on(C(=O)N(c3ccc(F)cc3)C(C)C)c2=O)s1 with surinam grass was 0

With surinam grass as the test system, CC(C)N(C(=O)n1oc(=O)n(CC#N)c1=O)c1ccc(F)cc1 showed B. signalgrass plant response rating of 0

Form field, B. signalgrass plant response rating with surinam grass, item Cc1nsc(C)c1-n1c(=O)on(C(=O)N(c2ccc(F)cc2F)C(C)C)c1=O : 0

For the molecule [2H]C([2H])([2H])n1c(=O)on(C(=O)N(c2ccc(F)cc2)C(C)C)c1=O , the measured B. signalgrass plant response rating on surinam grass was 1

Record Cc1nc(C)c(Cn2c(=O)on(C(=O)N(c3ccc(F)cc3F)C(C)C)c2=O)s1 / surinam grass, B. signalgrass plant response rating recorded as 0

Item: CC(C)N(C(=O)n1oc(=O)n(CC2CCCO2)c1=O)c1ccc(F)cc1 (stereo not drawn) | System: surinam grass | B. signalgrass plant response rating: 2

Query CC(C)N(C(=O)n1oc(=O)n(C2(C)CC2)c1=O)c1ccc(F)cc1F on surinam grass; B. signalgrass plant response rating returned: 0
